Provenance of the data: PubChem BioAssay

Examples of compounds with documented composite z-score follow.
ASSAY PROCEDURE: small-molecule microarray binders of probe aCHRDL2, primary screen, biochemical, biotinylated probe, 635/667 nm fluorescence (AID 1100)
CONDITION DETAILS: higher = more signal
Lab note: record just the number, no unit beside it.

Previously resolved entries follow.
INSERT INTO results (compound, data_value) VALUES
  ('CC(C)(C)N1C(=O)[C@H]2[C@H]3[C@H](O)[C@H](O)CC(=NOC[C@@H](O)COCc4ccco4)[C@@H]3CC[C@H]2C1=O', 0.588),
  ('CCOC(=O)[C@H](Cc1ccccc1)NC(=O)CCC1CC(OC(=O)NCCc2ccc(F)cc2)CC2(CCCC(COC(=O)NCc3cccc(C(F)(F)F)c3)O2)O1 (some centres not stated)', -0.311),
  ('CCN1C(=O)[C@H]2[C@H]3[C@H](O)[C@H](O)CC(=NOCC[C@@H]4C=C[C@H](OC(C)=O)[C@@H](COC(C)=O)O4)[C@@H]3CC[C@H]2C1=O', -0.426),
  ('CCN1C(=O)[C@H]2[C@@H]3C(=CC[C@H]2C1=O)C(=O)[C@H]1O[C@H]1[C@H]3O', -0.722);

Ask: Could you tell me which composite z-score is on file for COc1ccc(OC[C@@H](CO)OC)cc1 ?
Reply: -0.401

Ask: Could you tell me which composite z-score is on file for CC(CCN1CCCc2nc(C)c(C)cc21)=NO[C@H](C)c1cn([C@H](CO)Cc2ccccc2)nn1 ?
Reply: -0.395

Ask: Could you tell me which composite z-score is on file for C=CC[C@@H]1C=C[C@H](ON=CC[C@@H]2C=C[C@H](OC(C)=O)[C@@H](COC(C)=O)O2)[C@@H](CO)O1 ?
Reply: -0.293

* * *

ASSAY PROCEDURE: Plasmodium falciparum growth inhibition, primary screen, strain 3D7, DAPI fluorescence, 100 nL (AID 1184);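 also: parasites grown inside human red blood cells in medium with human serum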
CONDITION DETAILS: P. falciparum 3D7 growth, 3 d, higher = more signal
EXPERIMENTAL READOUT: z-score
Lab note: record just the number, no unit beside it.

INSERT INTO assay_data (compound, data_value) VALUES
  ('CCOC(=O)CCN1C(=O)[C@H]2[C@H]3[C@H](O)[C@H](O)CC(=NOCC=C(C)CCC=C(C)C)[C@H]3CC[C@H]2C1=O', 0.241),
  ('CON=C(C)CCN1CCCc2nc(C)c(C)cc21', -0.18),
  ('CCc1cc2c(nc1CC)CCN(CCC(C)=NO[C@@H]1O[C@H](COC(C)=O)[C@@H](OC(C)=O)[C@H](OC(C)=O)[C@H]1OC(C)=O)C2', -1.62),
  ('Cc1ccc(S(=O)(=O)N[C@@H]2COC(=O)CC=C[C@@H](C)[C@H](NS(=O)(=O)c3ccc(C)cc3)COC(=O)[C@H](C)NC(=O)CC=C[C@H]2C)cc1', -0.196),
  ('Cc1ccc2[nH]c3nc(CCCn4ccnc4-c4ccccc4)nnc3c2c1', -1.09);

Ask: Could you tell me which z-score is on file for CCOC(=O)CCN1C(=O)[C@H]2[C@H]3[C@H](O)[C@H](O)CC(=NO[C@@H]4O[C@H](CO)[C@@H](O)[C@H](O)[C@H]4O)[C@H]3CC[C@H]2C1=O ?
Reply: 0.209

Ask: Could you tell me which z-score is on file for COc1cccc([C@H]2Oc3ccc(OC)cc3C(=NO[C@@H](C)c3cc(-c4c(C)cc(C)cc4C)no3)[C@@H]2O)c1 ?
Reply: -0.24

Ask: Could you tell me which z-score is on file for CC(=O)OC[C@H]1O[C@@H](ON=C2[C@H]3CCn4c(=O)n(-c5ccccc5)c(=O)n4[C@H]3[C@H](O)[C@@H]3O[C@H]23)[C@H](OC(C)=O)[C@@H](OC(C)=O)[C@@H]1OC(C)=O ?
Reply: -0.541

Ask: Could you tell me which z-score is on file for CCc1cc2c(nc1CC)CCN(CCC(C)=NOC(C)CN1CCCCc3nc(C)c(C)cc31)C2 (stereo unspecified) ?
Reply: -1.86

Ask: Could you tell me which z-score is on file for CC(C)C(=O)N[C@H]1CCCN1C(=O)C=Cc1ccccc1 ?
Reply: -0.64

Ask: Could you tell me which z-score is on file for CO[C@@H]1COC(=O)CC=C[C@H](C)[C@H](OC)COC(=O)[C@@H]2CCCN2C(=O)CC=C[C@H]1C ?
Reply: -1.52

* * *

Examples of molecules with documented composite z-score follow.
System: Wnt5a (protein binding on small-molecule microarray)
ASSAY PROCEDURE: Wnt5a binders on small-molecule microarray, primary screen, biophysical, 635/667 nm fluorescence (AID 1142);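 also: fluorescence read at 667 nm with signal to noise per printed feature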
CONDITION DETAILS: 635 nm fluorescence, higher = more signal

INSERT INTO measurements (molecule, data_value) VALUES
  ('CCN1C(=O)[C@H]2[C@H]3[C@H](O)[C@H](O)CC(=NO[C@@H]4O[C@H](CO)[C@@H](O)[C@H](O)[C@H]4O)[C@H]3CC[C@H]2C1=O', 0.534),
  ('CCN1C(=O)[C@H]2[C@H]3[C@H](O)[C@H](O)CC(=NOCC(C)C)[C@H]3CC[C@H]2C1=O', -0.0772),
  ('C#CCCCON=C1C[C@@H](O)[C@@H](O)[C@@H]2[C@@H]3C(=O)N(C[C@@H]4CCCO4)C(=O)[C@@H]3CC[C@@H]12', 0.195);

Ask: Could you tell me which composite z-score is on file for CO[C@H]1COC(=O)[C@H](CCSC)NC(=O)CC=C[C@@H](C)[C@H](OC)COC(=O)[C@@H](OCc2ccccc2)C=C[C@@H]1C ?
Reply: 0.211

Ask: Could you tell me which composite z-score is on file for CCOC(=O)[C@H](CC(C)C)NC(=O)CCC1CC(OC(=O)NCc2ccc3c(c2)OCO3)CC2(CCCC(COC(=O)NCCc3ccccc3OC)O2)O1 (some centres undefined) ?
Reply: 0.08

* * *

Test system: Human papillomavirus type 1a E7 protein (residues 1-88)
ASSAY PROCEDURE: HPV1a E7 small-molecule binders, primary screen, biochemical, small-molecule microarray, residues 1-88, 635 nm (AID 1129)
CONDITION DETAILS: small-molecule microarray binding, fluorescence 635 nm; higher = more signal
Decide by composite z-score: equal to or exceeding 0.8 means 1, less means 0.

Past entries and their recorded results:
INSERT INTO assay_data (compound, group) VALUES
  ('CCN1C(=O)[C@H]2[C@H]3[C@H](O)[C@H](O)CC(=NO[C@@H]4O[C@H](COC(C)=O)[C@@H](OC(C)=O)[C@H](OC(C)=O)[C@H]4OC(C)=O)[C@@H]3CC[C@H]2C1=O', 1),
  ('C#CCCCON=C1[C@H]2CCn3c(=O)n(Cc4cc5c(cc4Cl)OCO5)c(=O)n3[C@H]2[C@H](O)[C@@H]2O[C@H]12', 0),
  ('O=C1[C@H]2[C@H]3[C@H](O)[C@H](O)CC(=NOCc4ccccc4)[C@H]3CC[C@H]2C(=O)N1C1CCCCC1', 1),
  ('CCOC(=O)CCN1C(=O)[C@H]2[C@H]3[C@H](O)[C@H](O)CC(=NOCC=C(C)CCC=C(C)C)[C@H]3CC[C@H]2C1=O', 0),
  ('CO[C@H]1C[C@@H]2C[C@H](O)CC(CC(=O)O[C@@H](C=CCC(C)C)C[C@@H]3CC[C@H](C)[C@@H](C1)O3)O2', 1);

Ask: For this compound, is measured composite z-score 0.8 or higher? CCN1C(=O)[C@H]2[C@H]3[C@H](O)[C@H](O)CC(=NOC[C@@H](O)[C@H]4O[C@@H]5OC(C)(C)O[C@@H]5[C@H]4O)[C@@H]3CC[C@H]2C1=O
Reply: 0

Ask: For this compound, is measured composite z-score 0.8 or higher? CCOC(=O)[C@H](Cc1ccccc1)NC(=O)CCC1CC(OC(=O)NCc2cccc3ccccc23)CC2(CCCC(COC(=O)NCCOc3ccccc3)O2)O1 (some centres not stated)
Reply: 1

Ask: For this compound, is measured composite z-score 0.8 or higher? COC(=O)[C@H](C)NC(=O)CCC1CC(OC(=O)NCc2ccc3c(c2)OCO3)CC2(CCCC(COC(=O)NCCCN3CCCC3=O)O2)O1 (some centres not stated)
Reply: 1

Ask: For this compound, is measured composite z-score 0.8 or higher? CCOC(=O)CCN1C(=O)[C@H]2[C@H]3[C@H](O)[C@H](O)CC(=O)[C@@H]3CC[C@H]2C1=O
Reply: 1

Ask: For this compound, is measured composite z-score 0.8 or higher? C[C@@H](c1ccccc1)N1C(=O)[C@H]2[C@H]3[C@H](O)[C@H](O)CC(=NNC(=O)OCc4ccccc4)[C@@H]3CC[C@H]2C1=O
Reply: 0
